For each of the sequences below, state its binding signal.
- testTarget: GST-Co-NF-kB (Capsaspora owczarzaki, UniProt F1ARL5 200-546)
- Sequence: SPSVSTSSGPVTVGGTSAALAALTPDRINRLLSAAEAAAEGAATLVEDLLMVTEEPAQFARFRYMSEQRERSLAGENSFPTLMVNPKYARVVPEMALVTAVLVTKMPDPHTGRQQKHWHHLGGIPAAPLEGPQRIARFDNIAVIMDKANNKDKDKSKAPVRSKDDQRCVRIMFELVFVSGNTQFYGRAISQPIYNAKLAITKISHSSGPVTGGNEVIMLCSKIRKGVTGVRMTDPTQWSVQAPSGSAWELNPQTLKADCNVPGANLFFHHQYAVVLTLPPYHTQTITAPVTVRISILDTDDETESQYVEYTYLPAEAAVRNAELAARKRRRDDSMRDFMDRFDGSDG
- protocolSummary: protein-binding microarray (PBM); PBM: ~300 nM protein, 6 mM HEPES pH 7.8, 80 mM KCl, 0.5 mM EDTA, 0.5 mM EGTA, 6% glycerol, 35 ng/ul poly-dIdC, 1% milk, 1 h, room temperature; high values mean tight binding
- runParameters: dsDNA, one strand shown
Give bare numbers, in z-score.

Reference set, count: 3
- querySequence: "CCGATTAACATCACCTTTTTCCCTGATGTTAATCGGGTCTTGATTCGCTTGACGCTGCTG"
  binding signal / z-score: 5.31
- querySequence: "CCGATTAACATCAGGGGGGGTAATGATGTTAATCGGGTCTTGATTCGCTTGACGCTGCTG"
  binding signal / z-score: 6.38
- querySequence: "CCGATTAACATCAGGCTATCCCCTGATGTTAATCGGGTCTTGATTCGCTTGACGCTGCTG"
  binding signal / z-score: 2.18

Here is another sequence to look at.
Qu. Field: binding signal (GST-Co-NF-kB (Capsaspora owczarzaki, UniProt F1ARL5 200-546)). Entry: CCGATTAACATCAAGAATTCCCCTGATGTTAATCGGGTCTTGATTCGCTTGACGCTGCTG
Ans. 7.33

----------
- testTarget: GST-Hu-p50 (Homo sapiens, UniProt P19838 7-356)
- Sequence (P19838 7-356): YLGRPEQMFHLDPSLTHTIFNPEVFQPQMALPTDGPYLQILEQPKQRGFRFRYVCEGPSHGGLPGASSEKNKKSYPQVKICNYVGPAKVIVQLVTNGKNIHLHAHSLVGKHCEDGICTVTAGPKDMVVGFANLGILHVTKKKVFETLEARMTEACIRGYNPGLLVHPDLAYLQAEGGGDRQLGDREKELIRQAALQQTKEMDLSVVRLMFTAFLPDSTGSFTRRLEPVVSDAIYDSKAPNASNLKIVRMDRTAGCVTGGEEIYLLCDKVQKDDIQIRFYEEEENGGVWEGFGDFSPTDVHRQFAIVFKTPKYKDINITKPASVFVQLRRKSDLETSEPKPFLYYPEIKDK
- protocolSummary: protein-binding microarray (PBM); PBM: ~300 nM protein, 6 mM HEPES pH 7.8, 80 mM KCl, 0.5 mM EDTA, 0.5 mM EGTA, 6% glycerol, 35 ng/ul poly-dIdC, 1% milk, 1 h, room temperature; Ap Aiptasia and Nv Nematostella (sea anemones) / Co Capsaspora / Aq Amphimedon (sponge) / Dm Drosophila / Hu human; RHD is the Rel homology domain; high values mean tight binding
- runParameters: dsDNA, one strand shown
Record 1.0 whenever binding signal is at 5 z-score or higher; record 0.0 when lower.

Qu. Kindly determine if binding signal recorded for CCGATTAACATCAAAATCTCCCCTGATGTTAATCGGGTCTTGATTCGCTTGACGCTGCTG is above or exactly 5 z-score.
Ans. 1.0

Qu. Again, but for CCGATTAACATCACCAGGTTAGGTGATGTTAATCGGGTCTTGATTCGCTTGACGCTGCTG
Ans. 0.0

Qu. Again, but for CCGATTAACATCAGGGGAGTGGATGATGTTAATCGGGTCTTGATTCGCTTGACGCTGCTG
Ans. 0.0

Qu. Again, but for CCGATTAACATCAGGGTTTCCCATGATGTTAATCGGGTCTTGATTCGCTTGACGCTGCTG
Ans. 0.0

Qu. Again, but for CCGATTAACATCAAGGGAGTCCCTGATGTTAATCGGGTCTTGATTCGCTTGACGCTGCTG
Ans. 0.0

Qu. Again, but for CCGATTAACATCAGAAGTGGGAATGATGTTAATCGGGTCTTGATTCGCTTGACGCTGCTG
Ans. 0.0

Qu. Again, but for CCGATTAACATCAGAAAAACCCCTGATGTTAATCGGGTCTTGATTCGCTTGACGCTGCTG
Ans. 1.0

FYI, the data here is from paper PMC5700166.
